molecular target: plant protox mutants (MzC-1Val, maize protox-1) in SASX38 (Arabidopsis thaliana, UniProt P55826, A220V/A252T/A259N/A262P/A292S/A82G/A83V/D204A/D323E/D487E/D93A/DEL80-81/E103P/E263P/E288N/E311D/E351S/E499D/F107Y/F178L/F250I/F483L/G171P/G277A/G306S/G313K/G344N/G441S/H340Y/I100T/I174L/I370V/I421V/I485L/I71T/I87L/INS101VE/K237R/K257S/K359R/K388Q/K457N/K465V/K78R/K92R/L137F/L159P/L310S/L325V/L345I/L360F/L436V/L86V/M122V/N105E/N149E/N241T/N258K/N316V/N355D/N459T/N85D/P266A/P418D/P458S/P84G/Q240E/Q272K/R284A/R293S/S186P/S291T/S305T/S312D/S330A/S352D/S369T/S430A/S439T/S460A/S491A/S492A/S495R/S496G/T141N/T160A/T318E/T379K/T397S/T461V/T488A/T494D/T56K/V126A/V334I/V337I/V95P); construct: expressed in transfected cells; host or cells: E. coli SASX38 (hemG mutant); experiment: Bacterial cross-tolerance testing of resistant mutant plasmids in SASX38, maize protox-1 mutant; type: cell-based; set-up: key: + = 10× or more tolerant than WT; ++ = 100× or more tolerant than WT; − = no cross tolerance; conditions: mutant MzC-1Val vs WT plasmid in SASX38
Sequence (P55826 other isoform, or with tags, fused parts or gaps with the stated changes): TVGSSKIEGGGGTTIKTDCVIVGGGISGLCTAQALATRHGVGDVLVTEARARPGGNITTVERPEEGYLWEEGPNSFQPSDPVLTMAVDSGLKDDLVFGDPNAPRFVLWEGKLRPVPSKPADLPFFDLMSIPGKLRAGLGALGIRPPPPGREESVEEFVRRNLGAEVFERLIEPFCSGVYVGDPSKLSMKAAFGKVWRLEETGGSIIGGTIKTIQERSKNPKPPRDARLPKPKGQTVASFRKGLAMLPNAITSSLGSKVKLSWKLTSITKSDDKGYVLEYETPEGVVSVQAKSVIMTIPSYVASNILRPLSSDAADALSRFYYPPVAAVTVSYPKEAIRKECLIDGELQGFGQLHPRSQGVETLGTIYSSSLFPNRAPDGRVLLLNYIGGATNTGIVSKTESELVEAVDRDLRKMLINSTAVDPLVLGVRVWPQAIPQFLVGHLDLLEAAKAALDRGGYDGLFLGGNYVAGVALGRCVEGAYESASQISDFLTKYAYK
assay.endpoint: Cross tolerance, MzC-1Val

CCOC(=O)COC(=O)c1cc(Oc2ccc(C(F)(F)F)cc2Cl)ccc1[N+](=O)[O-] [IV]: −

====

target: plant protox mutants (Arabidopsis protox-1) in SASX38 (Arabidopsis thaliana, UniProt P55826, T56K/Y426I); construct: contains only 17 amino acids of the putative chloroplast transit peptide; expressed in transfected cells; host or cells: E. coli SASX38 (hemG mutant); assay: Bacterial cross-tolerance testing of resistant mutant plasmids in SASX38, Arabidopsis protox-1 mutants; assay type: cell-based; parameters: key: + = 10× or more tolerant than WT; ++ = 100× or more tolerant than WT; − = no cross tolerance; conditions: mutant AraC-2Ile
Sequence (P55826 41-537 T56K/Y426I): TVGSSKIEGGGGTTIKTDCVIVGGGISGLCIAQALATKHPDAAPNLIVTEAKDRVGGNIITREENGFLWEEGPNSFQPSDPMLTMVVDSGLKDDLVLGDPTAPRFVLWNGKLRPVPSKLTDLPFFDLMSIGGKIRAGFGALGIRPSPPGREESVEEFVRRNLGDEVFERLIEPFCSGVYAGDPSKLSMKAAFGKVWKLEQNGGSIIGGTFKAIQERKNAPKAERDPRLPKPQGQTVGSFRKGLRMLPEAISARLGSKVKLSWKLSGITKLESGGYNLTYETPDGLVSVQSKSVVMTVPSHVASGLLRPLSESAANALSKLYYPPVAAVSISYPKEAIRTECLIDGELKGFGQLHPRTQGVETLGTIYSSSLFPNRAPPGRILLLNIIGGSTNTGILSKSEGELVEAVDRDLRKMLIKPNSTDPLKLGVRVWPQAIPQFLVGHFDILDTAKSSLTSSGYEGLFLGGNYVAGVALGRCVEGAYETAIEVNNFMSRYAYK
assay.endpoint: Cross tolerance, AraC-2Ile

CCOC(=O)COC(=O)c1cc(Oc2ccc(C(F)(F)F)cc2Cl)ccc1[N+](=O)[O-] [IV]: −

====

target: plant protox mutants (Arabidopsis protox-1) in SASX38 (Arabidopsis thaliana, UniProt P55826, N425S/T56K/Y426C); construct: contains only 17 amino acids of the putative chloroplast transit peptide; expressed in transfected cells; host or cells: E. coli SASX38 (hemG mutant); assay: Bacterial cross-tolerance testing of resistant mutant plasmids in SASX38, Arabidopsis protox-1 mutants; format: cell-based; set-up: key: + = 10× or more tolerant than WT; ++ = 100× or more tolerant than WT; − = no cross tolerance; conditions: mutant AraC-2Cys + AraC425Ser
Sequence (P55826 41-537 T56K/N425S/Y426C): as the sequence (P55826 41-537 T56K/Y426I) above, with N385S, I386C counted along it
assay.endpoint: Cross tolerance, AraC-2Cys + AraC425Ser

CCOC(=O)COC(=O)c1cc(Oc2ccc(C(F)(F)F)cc2Cl)ccc1[N+](=O)[O-]: −
CCCCCOC(=O)COc1cc(N2C(=O)C3=C(CCCC3)C2=O)c(F)cc1Cl: −

====

biological target: plant protox mutants (Arabidopsis protox-1) in SASX38 (Arabidopsis thaliana, UniProt P55826, A220V/T56K); construct: contains only 17 amino acids of the putative chloroplast transit peptide; expressed in transfected cells; host or cells: E. coli SASX38 (hemG mutant); test: Bacterial cross-tolerance testing of resistant mutant plasmids in SASX38, Arabidopsis protox-1 mutants; type: cell-based; design: key: + = 10× or more tolerant than WT; ++ = 100× or more tolerant than WT; − = no cross tolerance; settings: mutant AraC-1Val vs WT plasmid in SASX38
Sequence (P55826 41-537 T56K/A220V): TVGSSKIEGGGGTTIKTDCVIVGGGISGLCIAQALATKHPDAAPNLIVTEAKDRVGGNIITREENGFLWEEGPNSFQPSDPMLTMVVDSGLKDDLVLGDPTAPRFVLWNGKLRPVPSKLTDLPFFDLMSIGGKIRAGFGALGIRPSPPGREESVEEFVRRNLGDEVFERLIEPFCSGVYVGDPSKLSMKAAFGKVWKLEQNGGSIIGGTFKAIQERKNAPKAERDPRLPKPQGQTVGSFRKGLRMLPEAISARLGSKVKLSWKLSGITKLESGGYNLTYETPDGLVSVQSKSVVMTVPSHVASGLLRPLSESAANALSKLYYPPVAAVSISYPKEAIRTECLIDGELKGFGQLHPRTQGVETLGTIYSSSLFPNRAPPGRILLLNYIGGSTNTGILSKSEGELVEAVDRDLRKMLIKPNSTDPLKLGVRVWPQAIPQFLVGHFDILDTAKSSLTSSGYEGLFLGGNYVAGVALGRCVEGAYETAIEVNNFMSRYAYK
assay.endpoint: Cross tolerance, AraC-1Val

C#CCN1C(=O)COc2cc(F)c(N3C(=O)C4=C(CCCC4)C3=O)cc21 [XVI]: −
CC(C)OC(=O)c1cc(-n2c(=O)cc(C(F)(F)F)n(C)c2=O)ccc1Cl [XI]: −

====

Target: plant protox mutants (Arabidopsis protox-1) in SASX38 (Arabidopsis thaliana, UniProt P55826, A220T/T56K)
Construct: contains only 17 amino acids of the putative chloroplast transit peptide; expressed in transfected cells; host or cells: E. coli SASX38 (hemG mutant)
Sequence (P55826 41-537 T56K/A220T): as the sequence (P55826 41-537 T56K/Y426I) above, with A180T, I386Y counted along it
Experiment: Bacterial cross-tolerance testing of resistant mutant plasmids in SASX38, Arabidopsis protox-1 mutants
Format: cell-based
Parameters: key: + = 10× or more tolerant than WT; ++ = 100× or more tolerant than WT; − = no cross tolerance
Details: mutant AraC-1Thr vs WT plasmid in SASX38
Protocol: Resistant mutant plasmids, originally identified based on resistance against a single protox inhibitory herbicide, were tested against a spectrum of other protox inhibiting compounds. […] Resistant mutant plasmids in SASX38 are plated and scored for the ability to survive on a concentration of each compound at least 10 fold higher than the concentration that is lethal to the SASX38 strain containing the wild-type plasmid.
assay.endpoint: Cross tolerance, AraC-1Thr

C#CCN1C(=O)COc2cc(F)c(N3C(=O)C4=C(CCCC4)C3=O)cc21: −
